The measurements presented in this section are drawn from PubChem BioAssay AID849.

# System: Saccharomyces cerevisiae lifespan shortening, growth inhibition
# METHOD NOTES: yeast lifespan shortening compounds, dose response (AID 849);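 further: yeast growth read as optical density after two days at 30 degrees C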
Activity calls are given as the source filed them. How the calls were made is not given here.
Give one outcome, nothing more. List: Yes for active, No for inactive

Oc1c(Cl)cc(Cl)c(Cl)c1Cc1c(O)c(Cl)cc(Cl)c1Cl = No
c1ccc(-c2ccc(C(c3ccccc3)n3ccnc3)cc2)cc1 (stereo not drawn) = Yes
CCOc1ccc(N/N=C(/C#N)C(N)=O)cc1 = Yes
COc1ccc(OC)c(CCNC(=O)Cn2sc3nc(C)cc(C)c3c2=O)c1 = No
O=C1c2ccccc2NC(c2ccc(-c3ccc(Br)cc3)o2)N1O (stereo not drawn) = Yes
Cc1ccc(OC(=S)Nc2ccc(O)cc2)cc1 = Yes
CCSc1nc2ccccc2n1S(=O)(=O)c1ccccc1 = No
c1cnc2c(c1)ccc1cccnc12 = Yes
CCOC(=O)c1c(/N=C/c2cc([N+](=O)[O-])ccc2O)sc(C)c1C = Yes
CC1=CC(=O)c2ccccc2C1=O = Yes

Name the outcome recorded for `c1ccc(-c2csc3nnc(SCc4ccc5c(c4)OCO5)n23)cc1` in the assay. No

Name the outcome recorded for `CCOC(=O)CSc1nnc(CSc2nc(N)c3c(C)c(C)sc3n2)n1-c1ccccc1` in the assay. No

Name the outcome recorded for `Oc1ccc(-c2csc(-c3ccccc3)n2)cc1O` in the assay. Yes

Name the outcome recorded for `CC(C)c1ccc(NC(=S)NCCc2c[nH]c3ccccc23)cc1` in the assay. No

Name the outcome recorded for `COC1=C(N)C(=O)c2nc(-c3nc(C(=O)O)c(C)c(-c4ccc(OC)c(OC)c4O)c3N)ccc2C1=O` in the assay. Yes

Name the outcome recorded for `O=C(COc1ccccc1)N1CCN=C1SCc1cccnc1` in the assay. No

Name the outcome recorded for `O=c1c2ccccc2nc2c3ccccc3c3nncn3n12` in the assay. Yes

Name the outcome recorded for `Cn1cccc1C(=O)NC(=O)CSc1cccc[n+]1[O-]` in the assay. Yes

Name the outcome recorded for `Cc1cc(C)cc(N=Cc2ccc([N+](=O)[O-])s2)c1` in the assay. Yes
